assay: BSK_3C_Proliferation: Cell Proliferation Assessment in the BioMAP Diversity Plus: 3C Assay (AID 2283006); details: primary human endothelial cells (HUVEC)
The source made the active and inactive calls. How the source made its calls: active means hit-call score of the fitted dose curve at least 0.9, where 1 is the maximum; inactive means score below 0.9.
Returns: one label drawn from True = active, False = inactive

Use these answered entries as a reference point.
C=CCCCCCCCCC=O    False
CCCCCCOC(=O)CCCCC(=O)OCCCCCC    False
CCOC(=O)C1=NOC(c2ccccc2)(c2ccccc2)C1    True

I'd appreciate the recorded outcome for CCCCCCCCC(CO)CCCCCC (stereo not given) from this test.
False

Recorded test call requested for CC/C=C\CCOC(=O)c1ccccc1O
True

Check the results log: what was the call for O=C(Cl)c1c(Cl)c(Cl)c(C(=O)Cl)c(Cl)c1Cl ?
False
